Recorded values, source patent US20120219562A1.

Target: T1, human interleukin 12 (human, UniProt P29459 23-219; P29460 23-328)
T1 construct: heterodimer of p35 and p40 linked by a disulfide bridge; also called hIL-12; IL-12
T1 sequence (looked up) 1: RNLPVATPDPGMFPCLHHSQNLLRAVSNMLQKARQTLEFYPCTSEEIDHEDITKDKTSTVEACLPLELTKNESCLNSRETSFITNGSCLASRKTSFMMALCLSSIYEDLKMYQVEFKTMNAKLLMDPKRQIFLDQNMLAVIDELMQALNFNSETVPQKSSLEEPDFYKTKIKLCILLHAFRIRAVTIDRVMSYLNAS
T1 sequence (looked up) 2: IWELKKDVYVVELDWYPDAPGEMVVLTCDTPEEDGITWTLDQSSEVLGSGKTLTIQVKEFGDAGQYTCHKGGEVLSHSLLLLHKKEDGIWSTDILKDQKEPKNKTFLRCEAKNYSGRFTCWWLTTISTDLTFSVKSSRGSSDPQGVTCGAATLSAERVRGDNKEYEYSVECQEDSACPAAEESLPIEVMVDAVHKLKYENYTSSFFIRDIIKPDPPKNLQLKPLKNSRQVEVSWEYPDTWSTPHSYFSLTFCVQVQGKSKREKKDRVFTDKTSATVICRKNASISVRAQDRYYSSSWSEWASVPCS
Assay: SPR (BIAcore)
Test readout: koff
The reply should read as a number followed by its unit.

[in] Quick one: koff of 73-C5 (antibody, V domains shown) VH: QVQLVQSGGGVVQPGRSLRLSCAASGFTFSSYGMHWVRQAPGKGLEWVAFIRYDGSNKYYADSVKGRFTISRDNSKNTLYLQMKSLRAEDTAVYYCTTSGSYDYWGQGTMVTVSS VL: SYVLTQPPSVSGTPGQRVTISCSGGRSNIGSNTVKWYQQLPGTAPKLLIYGNDQRPSGVPDRFSGSKSGTSASLAITGVQAEDEADYYCHSHDRDFTGSRVFGTGTKVTVLG ?
[out] 0.00484 s⁻¹

[in] Quick one: koff of 73-G5 (antibody, V domains shown) VH: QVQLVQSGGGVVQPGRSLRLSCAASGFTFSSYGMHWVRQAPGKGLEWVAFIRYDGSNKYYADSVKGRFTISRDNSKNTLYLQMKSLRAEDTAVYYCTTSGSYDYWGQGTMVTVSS VL: SYVLTQPPSVSGTPGQRVTISCSGGRSNIGSNTVKWYQQLPGTAPKLLIYGNDQRPSGVPDRFSGSKSGTSASLAITGVQAEDEADYYCHSSDSDSTGSRVFGTGTKVTVLG ?
[out] 0.00601 s⁻¹

[in] Quick one: koff of 136-16 (antibody, V domains shown) VH: QVQLVQSGGGVVQPGRSLRLSCAASGFTFSSYGMHWVRQAPGKGLEWVAFIRYDGSNKYYADSVKGRFTISRDNSKNTLYLQMKSLRAEDTAVYYCTTHGSHDNWGQGTMVTVSS VL: SYVLTQPPSVSGTPGQRVTISCSGGRSNIGSNTVKWYQQLPGTAPKLLIYGNDQRPSGVPDRFSGSKSGTSASLAITGVQAEDEADYYCQSYDRRFTGSRVFGTGTKVTVL ?
[out] 0.00061 s⁻¹
